system.name: α1 adrenergic receptors of rat cerebral cortex
method.notes: [3H] prazosine binding, rat cerebral cortex (α1)
experimental.conditions: read-out: KD of Prazosine [^3 H]; radioligand
observation.type: pKd
In plain terms, pKd is the concentration in mol/L turned into minus its base-10 logarithm.

INPUT: Which pKd is reported for this compound? COc1cc2nc(N3CCN(C(=O)c4ccco4)CC3)nc(N)c2cc1OC [Prazosine [^3 H], reference compound]
OUTPUT: 9.85

* * *

Assignment: determine reported Ki for the given molecules.
system.name: α1 adrenergic receptors of rat cerebral cortex
method.notes: [3H] prazosine binding, rat cerebral cortex (α1)
Design: species or system rat (male Wistar)
experimental.conditions: read-out: Prazosine [^3 H] Ki nM; rat cerebral cortex, 0.2 nM [3H] prazosine, 25° C., 30 minutes; at least three experiments ± standard deviation
Respond numerically; units are nM and should not be typed.

INPUT: Param readout = Ki; param system = α1 adrenergic receptors of rat cerebral cortex; param query = "COc1cc(N)c(CN2CCc3ccccc3C2)cc1OC" ; response: value
OUTPUT: 3220

INPUT: # get_value(readout= Ki, system= α1 adrenergic receptors of rat cerebral cortex) for "COc1ccc2c(c1)CCN(Cc1ccc(Cl)cc1N)C2"
OUTPUT: 1800
